Task for the reader: assign each of the following compounds its reported growth inhibition.
assay: NCI Yeast Anticancer Drug Screen. Data for the rad50 strain (AID 155);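 further: 0% = growth of vehicle-only cultures of the same strain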; details: S. cerevisiae rad50 strain growth inhibition; at 50.0 µM; stronger effect = higher value
About 79,000 compounds went through this panel and 15% of them were active in at least one assay; those are over-represented in the sample as a whole.
Return type: number; implicit unit %.

[in] // Input: CN(C)c1ccc(/C=N\N=C\c2ccco2)cc1 . Output its growth inhibition only.
[out] 7.65

[in] // Input: Cc1cn(C2CC(O)C(CO)O2)c(=O)nc1NCC12CC3CC(CC(C3)C1)C2 (stereo not drawn) . Output its growth inhibition only.
[out] -1.7

[in] // Input: CCOC(=O)c1nc2c(n(O)c1=N)CCC/C2=N\O . Output its growth inhibition only.
[out] 4.1

[in] // Input: CC12CCC(/C(=C/N(O)/C=C3\C(=O)C4(C)CCC3C4(C)C)C1=O)C2(C)C . Output its growth inhibition only.
[out] -17.6

[in] // Input: CC1C(=O)C23CC1CCC2C12COC(O)C1C(C)(C)C(O)CC2OC3=O (stereo not drawn) . Output its growth inhibition only.
[out] -10.4

[in] // Input: CSc1nc(-c2ccc(Cl)cc2)c(C#N)c(=O)n1C1OC(COC(C)=O)C(OC(C)=O)C(OC(C)=O)C1OC(C)=O (stereo not drawn) . Output its growth inhibition only.
[out] -0.55

[in] // Input: NC(=O)c1[nH]c(COCCO)nc1N . Output its growth inhibition only.
[out] -20.4

[in] // Input: CCOC(=O)c1cc(CC)sc1N . Output its growth inhibition only.
[out] -1.55

[in] // Input: CC1=CC(=O)OC1=O . Output its growth inhibition only.
[out] 4.9

[in] // Input: Clc1ccc(SCc2csc(-c3ccc(Cl)cc3)n2)cc1 . Output its growth inhibition only.
[out] -27.5

[in] // Input: C=C(Cl)COC(=O)C(C)O (stereo not drawn) . Output its growth inhibition only.
[out] 3

[in] // Input: Nc1ncc[nH]c1=O . Output its growth inhibition only.
[out] -16.1

[in] // Input: O=C(Nc1ccc(Cl)cc1)c1cc2cc(N=Nc3ccc(Br)cc3)ccc2oc1=O . Output its growth inhibition only.
[out] -18.1

###

Task for the reader: assign each of the following compounds its reported growth inhibition.
assay: NCI Yeast Anticancer Drug Screen. Data for the cln2 rad14 strain (AID 165);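 further: 0% = growth equal to vehicle treated cultures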; conditions: S. cerevisiae cln2 rad14 strain, at 50.0 µM, stronger effect = higher value
About 79,000 compounds went through this panel and 15% of them were active in at least one assay; those are over-represented in the sample as a whole.
Return type: number; implicit unit %.

[in] // Input: Cc1cc(Cl)nc2ccc(Cc3ccc(Cl)cc3)cc12 . Output its growth inhibition only.
[out] 11.9

[in] // Input: CC(C)(C)NO . Output its growth inhibition only.
[out] 3.4

[in] // Input: COc1ccc(/C=N/NC(=O)c2ccccc2OC)cc1 . Output its growth inhibition only.
[out] -11.5

[in] // Input: COc1cc(C)cc2c1C(=O)C(Br)=CC2=O . Output its growth inhibition only.
[out] 91.8

[in] // Input: CCOc1cc(C(=O)O)cc(OCC)n1 . Output its growth inhibition only.
[out] -29.4

[in] // Input: Cc1ccc(/C=N/n2c(Cc3ccccc3)n[nH]c2=O)cc1 . Output its growth inhibition only.
[out] 11.8

[in] // Input: O=C(NC(CSC(=O)c1ccccc1)C(=O)O)c1ccccc1 (stereo not drawn) . Output its growth inhibition only.
[out] -22.1

[in] // Input: CN=C(N)N/N=C(\c1ccccc1)c1ccc(Cl)cc1 . Output its growth inhibition only.
[out] 3.55

[in] // Input: c1cn2cnnc2n2cnnc12 . Output its growth inhibition only.
[out] -32

[in] // Input: COc1ccc(C(=O)OCc2ccccc2CN2CCOCC2)cc1 . Output its growth inhibition only.
[out] 30.3

[in] // Input: CCOC(=O)C1=C(C(=O)C(C)(C)C)C(c2ccc([N+](=O)[O-])cc2)C(C(=O)C(C)(C)C)=C(C(=O)OCC)N1 . Output its growth inhibition only.
[out] 27.4

[in] // Input: Cn1nnc(/N=C/c2ccccc2)n1 . Output its growth inhibition only.
[out] -19.1

[in] // Input: CC(C)(C)NC(=O)NCC1CCCC1NC(=O)NC(C)(C)C (stereo not drawn) . Output its growth inhibition only.
[out] -5.45

[in] // Input: COc1ccc(C(=O)/C=C/c2ccc(OCC(=O)O)cc2)cc1 . Output its growth inhibition only.
[out] 21.8

[in] // Input: CCOC(=O)C1C(C)NC(C)C(C(=O)OCC)C1C (stereo not drawn) . Output its growth inhibition only.
[out] -44.5

[in] // Input: CSc1nc2ncnc(NCc3ccc(Cl)cc3)c2[nH]1 . Output its growth inhibition only.
[out] -43.3

[in] // Input: Cc1nc2nc(NCCCN(C)C)nc(NCCCN(C)C)c2nc1C . Output its growth inhibition only.
[out] 23.6

[in] // Input: CNC(=O)SCC(NC(=O)CCC(N)C(=O)O)C(=O)NCC(=O)O (stereo not drawn) . Output its growth inhibition only.
[out] 28.4

[in] // Input: O=[N+]([O-])c1cc([N+](=O)[O-])c(/C=C/c2ccccc2Cl)cc1/C=C/c1ccccc1Cl . Output its growth inhibition only.
[out] -19.6

[in] // Input: CCC(C)(CC(=O)O)CC(=O)O . Output its growth inhibition only.
[out] 0.85

[in] // Input: COC(=O)N/N=C(\C(=O)Nc1cccc([N+](=O)[O-])c1)c1nc2ccc([N+](=O)[O-])cc2[nH]c1=O . Output its growth inhibition only.
[out] 14.8

[in] // Input: CN1CCS(=O)(=O)C2CCCCC2C1=O (stereo not drawn) . Output its growth inhibition only.
[out] 11.8

[in] // Input: Cc1cc(C)[n+](C)c(/C=C/c2ccc([N+](=O)[O-])cc2)n1 . Output its growth inhibition only.
[out] 27.8

[in] // Input: COc1ccc(C2c3cc4c(cc3OC(O)(CO)C2C(=O)O)OCO4)c(OC)c1OC (stereo not drawn) (tested in a mixture with another compound) . Output its growth inhibition only.
[out] -15.5

[in] // Input: CCCCCCNC(=O)C1=C(C)NC(C)=C(C(=O)NCCCCCC)C1 . Output its growth inhibition only.
[out] -24.9

[in] // Input: O=[N+]([O-])c1cc(S(=O)(=O)O)cc(S(=O)(=O)O)c1O . Output its growth inhibition only.
[out] 19.6

[in] // Input: CCOC(=O)C(C)(Cc1ccco1)C(=O)OCC . Output its growth inhibition only.
[out] -33.5

[in] // Input: CCC(CO)Nc1nc2c(c(=O)n(C)c(=O)n2C)n1CCO (stereo not drawn) . Output its growth inhibition only.
[out] 8.15

[in] // Input: CCOC(=O)c1cnc2ccccn2c1=O . Output its growth inhibition only.
[out] 7.2

[in] // Input: Cc1ccc(S(=O)(=O)OCCN(CCOS(=O)(=O)c2ccc(C)cc2)c2cccc(Cl)c2)cc1 . Output its growth inhibition only.
[out] 19

[in] // Input: CC(NC(=O)C(N)CC(=O)O)C(=O)OC12CC3CC(CC(C3)C1)C2 (stereo not drawn) . Output its growth inhibition only.
[out] -0.95

[in] // Input: S=c1nc[nH]c2c1CN(Cc1ccccc1)CC2 . Output its growth inhibition only.
[out] -23.4

[in] // Input: CC1(C)C2CCC(I)(C2)C1I (stereo not drawn) . Output its growth inhibition only.
[out] -15.8

[in] // Input: CN(N=O)c1nc2c(C(N)=O)ncn2s1 . Output its growth inhibition only.
[out] 2.2

[in] // Input: O=[N+]([O-])c1ccc(OCCSc2ccccc2)cc1 . Output its growth inhibition only.
[out] 12.6

[in] // Input: c1csc(-c2nc3sc(-c4cccs4)nc3s2)c1 . Output its growth inhibition only.
[out] -18.8

[in] // Input: CCCCCCCC(=O)N1C2CN3C4=C(C(=O)C(N)=C(C)C4=O)C(COC(N)=O)C3(OC)C21 (stereo not drawn) . Output its growth inhibition only.
[out] 20.8

[in] // Input: Cc1nc2c(o1)C(=Nc1ccccc1)c1ccccc1C2=Nc1ccccc1 . Output its growth inhibition only.
[out] -13.9

[in] // Input: O=C1/C(=C\C=C\c2ccccc2)CCC/C1=C/C=C/c1ccccc1 . Output its growth inhibition only.
[out] 20.8

[in] // Input: Cn1c(=O)c2c(n(C)c1=O)n1c(=O)c3ccccc3nc1n2C . Output its growth inhibition only.
[out] -7.1

[in] // Input: O=S1(=O)c2ccc(cc2)N=CC=Nc2ccc1cc2 . Output its growth inhibition only.
[out] -2.4

[in] // Input: COc1ccccc1NC(=O)C(C#N)=C(SC)SC . Output its growth inhibition only.
[out] 18.6

[in] // Input: CN(C(=O)C1C2c3ccccc3C(c3ccccc32)C1C(=O)N(C)c1ccccc1)c1ccccc1 (stereo not drawn) . Output its growth inhibition only.
[out] -39

[in] // Input: COc1ccc(C(=O)N2CCOCC2)cc1 . Output its growth inhibition only.
[out] 31.9

[in] // Input: N#CCC(=O)N/N=C\C(O)C(O)C(O)C(O)CO (stereo not drawn) . Output its growth inhibition only.
[out] -1.45

[in] // Input: O=C1NC(=O)C2C3CCC(C3)C12 (stereo not drawn) . Output its growth inhibition only.
[out] -41.8

[in] // Input: N#Cc1cnsc1 . Output its growth inhibition only.
[out] 3.55

[in] // Input: COc1ccc(NC2CC(C)N(C(=O)c3ccccc3)O2)cc1 (stereo not drawn) . Output its growth inhibition only.
[out] 12.3
